The measurements presented in this section are drawn from patent US20250361239A1.

Some compounds, each annotated with its measured DC50.
Tgt: GSPT1 (Homo sapiens, UniProt P15170+Q96SW2)
Construct: host or cells: HEK293
Sequence (P15170 whole entry): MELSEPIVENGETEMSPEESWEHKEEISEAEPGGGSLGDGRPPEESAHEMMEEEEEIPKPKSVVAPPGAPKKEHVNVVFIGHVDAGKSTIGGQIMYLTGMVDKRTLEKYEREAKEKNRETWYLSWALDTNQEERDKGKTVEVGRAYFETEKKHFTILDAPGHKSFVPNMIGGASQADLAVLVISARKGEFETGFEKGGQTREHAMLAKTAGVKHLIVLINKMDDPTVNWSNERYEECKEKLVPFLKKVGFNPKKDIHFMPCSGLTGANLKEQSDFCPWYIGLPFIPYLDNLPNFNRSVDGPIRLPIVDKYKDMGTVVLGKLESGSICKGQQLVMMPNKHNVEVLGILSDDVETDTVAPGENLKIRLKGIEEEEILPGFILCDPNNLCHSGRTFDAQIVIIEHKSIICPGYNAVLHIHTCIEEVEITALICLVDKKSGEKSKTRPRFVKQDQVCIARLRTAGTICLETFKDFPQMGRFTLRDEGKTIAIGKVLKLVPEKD
Sequence (Q96SW2 whole entry): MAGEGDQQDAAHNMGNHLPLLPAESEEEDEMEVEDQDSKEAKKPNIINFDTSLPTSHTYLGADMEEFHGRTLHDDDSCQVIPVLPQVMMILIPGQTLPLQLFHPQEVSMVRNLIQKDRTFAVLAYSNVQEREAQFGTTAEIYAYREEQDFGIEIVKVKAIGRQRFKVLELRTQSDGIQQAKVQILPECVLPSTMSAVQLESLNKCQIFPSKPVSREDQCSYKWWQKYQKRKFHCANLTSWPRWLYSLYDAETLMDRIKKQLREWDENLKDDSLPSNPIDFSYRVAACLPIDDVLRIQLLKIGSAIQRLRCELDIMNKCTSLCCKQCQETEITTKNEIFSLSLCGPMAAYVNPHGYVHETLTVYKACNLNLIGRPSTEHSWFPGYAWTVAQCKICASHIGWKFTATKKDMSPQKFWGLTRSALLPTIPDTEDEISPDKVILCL
Sequence (Q16531 whole entry partner): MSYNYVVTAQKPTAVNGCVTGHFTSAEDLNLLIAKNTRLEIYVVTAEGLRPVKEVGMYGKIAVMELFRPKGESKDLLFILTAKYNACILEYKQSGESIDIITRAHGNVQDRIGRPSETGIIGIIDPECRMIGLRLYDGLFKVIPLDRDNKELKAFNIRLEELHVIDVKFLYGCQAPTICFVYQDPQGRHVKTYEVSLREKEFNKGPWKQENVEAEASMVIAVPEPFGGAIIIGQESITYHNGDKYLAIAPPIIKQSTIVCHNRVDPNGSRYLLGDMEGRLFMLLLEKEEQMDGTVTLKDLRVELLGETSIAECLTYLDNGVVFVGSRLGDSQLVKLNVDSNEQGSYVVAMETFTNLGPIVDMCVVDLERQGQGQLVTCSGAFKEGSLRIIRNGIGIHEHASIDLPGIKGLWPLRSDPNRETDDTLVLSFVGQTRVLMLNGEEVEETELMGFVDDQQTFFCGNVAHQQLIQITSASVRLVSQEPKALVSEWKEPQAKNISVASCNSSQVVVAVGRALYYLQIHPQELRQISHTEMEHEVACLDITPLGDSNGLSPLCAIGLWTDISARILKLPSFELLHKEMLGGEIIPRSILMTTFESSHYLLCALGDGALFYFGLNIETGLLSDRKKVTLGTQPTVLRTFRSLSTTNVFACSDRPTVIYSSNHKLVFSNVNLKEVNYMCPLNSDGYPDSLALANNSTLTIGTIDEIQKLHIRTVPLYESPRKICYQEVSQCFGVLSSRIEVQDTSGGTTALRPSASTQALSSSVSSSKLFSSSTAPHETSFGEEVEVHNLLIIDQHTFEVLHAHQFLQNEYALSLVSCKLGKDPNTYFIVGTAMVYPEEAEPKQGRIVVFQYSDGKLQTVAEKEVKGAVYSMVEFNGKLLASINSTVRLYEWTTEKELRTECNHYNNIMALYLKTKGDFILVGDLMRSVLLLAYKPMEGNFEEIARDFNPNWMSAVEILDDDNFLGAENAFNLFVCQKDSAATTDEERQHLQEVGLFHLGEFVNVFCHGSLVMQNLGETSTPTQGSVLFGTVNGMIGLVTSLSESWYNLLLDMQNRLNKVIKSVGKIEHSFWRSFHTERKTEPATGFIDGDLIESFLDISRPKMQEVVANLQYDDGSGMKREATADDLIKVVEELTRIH
Protocol text: Degradation of GSPT1 by the compounds (HiBiT signal in GSPT1/HEK293 hibit cells)
Format: cell-based
Condition details: 6 h incubation, Nano Glo HiBiT Lytic Detection

Solved cases below.
Compound	Readout	Result
Cn1c2cnccc2nc1[C@H]1CC[C@H](NC(=O)c2cc(CNc3cccc4c3C(=O)N(C3CCC(=O)NC3=O)C4=O)ccn2)CC1 (stereo partly drawn)	DC50	< 0.1 µM
COc1ccc2c(c1)nc(C1CCC(NC(=O)c3cccc(CNc4cccc5c4C(=O)N(C4CCC(=O)NC4=O)C5=O)c3)CC1)n2C (stereo not drawn)	DC50	< 0.1 µM

Respond only with DC50 recorded for O=C1CCC(N2C(=O)c3cccc(NCc4cccc(C(=O)NC5CCC(c6coc7ccccc67)CC5)c4)c3C2=O)C(=O)N1 (stereo not drawn) < 0.1 µM
